Where these numbers come from: ChEMBL document CHEMBL1201862

Documented GI50 across a set of compounds
Tested on: DMS-114
Assay procedure: NCI tumour cell line growth inhibition, 48 h
Calls of active or inactive are those of the source. Cut-off read from the data, not from the text of the source: active = GI50 up to about 1.1 µM and inactive = higher.
Measured quantity: GI50

* COC(=O)CC(=O)OC1C[C@@H]2CCC3C(C)(C)CCC[C@]3(C)C23CC[C@@]1(C)C3 (some centres not stated) | 20.2 µM (inactive)
* CS(=O)(=O)OCCCOS(C)(=O)=O | > 100 µM (inactive)
* CCCCOCN/C(N)=N/C#N | > 100 µM (inactive)
* CC(C)OP(=O)(OC(C)C)/C(N)=N/Nc1ccc([N+](=O)[O-])cc1 | 57.8 µM (inactive)
* Cc1cc(NS(=O)(=O)c2ccc(NC(=O)c3cccc4c(=O)c5ccccc5[nH]c34)cc2)no1 | 46 µM (inactive)
* CC#Cc1c(O)c2c(c(O)c1C#CC)C(=O)c1ccccc1C2=O | > 100 µM (inactive)
* CCOC(=O)c1ccc(/C(C)=N/NC(N)=S)cc1 | > 100 µM (inactive)

* * *

Tested on: EKVX
Assay procedure: NCI tumour cell line growth inhibition, 48 h
Activity calls are given as the source filed them. No stated cut-off is given here; in the data, active = GI50 up to about 1.1 µM and inactive = higher.
Documented GI50 across a set of compounds
Measured quantity: GI50

- CCCCN/C(=N/C#N)NCc1ccccc1: > 100 µM (inactive)
- C/C(=C\CC[C@]1(C)OC(C)(C)OC1CC/C(C)=C/CO[Si](c1ccccc1)(c1ccccc1)C(C)(C)C)CC/C=C/CO[Si](C)(C)C(C)(C)C (stereo partly specified): > 100 µM (inactive)
- Brc1ccc2c(-c3nc(-c4c[nH]c5ccc(Br)cc45)cs3)c[nH]c2c1: 1.24 µM (inactive)
- COC(=O)C1=C(c2ccc3c(c2)OCO3)OC(c2cc(OC)c(OC)c(OC)c2)C1 (stereo unspecified): 2.82 µM (inactive)
- COc1cc(NCc2ccc3nc(-c4ccccc4)c(N)nc3c2)cc(OC)c1OC: 33.2 µM (inactive)
- COc1cccc2c(=O)c3c(O)c4cc(N(C)C)ccc4c(OC(C)=O)c3oc12: 12.5 µM (inactive)
- N=C(N)NC(=N)Nc1ccc(S(=O)(=O)O)cc1: > 100 µM (inactive)
- CC12CCC(=O)N1c1cnccc1N2 (stereo unspecified): > 100 µM (inactive)
- O=C1NN=CN2C(=O)CCC12 (stereo unspecified): > 100 µM (inactive)
- COc1cc(-c2cc(-c3cc([N+](=O)[O-])c(/C=N/NC(=O)c4ccncc4)o3)ccc2OC)ccc1C: > 100 µM (inactive)
- Cn1nc2ccc(Nc3cc(=O)[nH]c4ccc5nn(C)nc5c34)cc2n1: > 100 µM (inactive)
- Nc1c(S(=O)(=O)O)cc(S(=O)(=O)O)c2ccc(/N=N/c3ccc(/C=C/c4ccc(/N=N/c5ccc6c(S(=O)(=O)O)cc(S(=O)(=O)O)c(N)c6c5O)cc4S(=O)(=O)O)c(S(=O)(=O)O)c3)c(O)c12: > 100 µM (inactive)
- [N-]=[N+]=NCN1C(=O)C2C3C=CC(C2C1=O)C1C2C(=O)N(CN=[N+]=[N-])C(=O)C2C31 (stereo unspecified): > 100 µM (inactive)
- CCOC(=O)C(=O)Nc1nc2c(s1)C(=O)c1ccccc1C2=O: 16.1 µM (inactive)
- O=c1[nH]c(=O)n(C2OC(CO)C(N(O)Cc3ccc(F)cc3)C2O)cc1Br (stereo unspecified): > 100 µM (inactive)
- COC(=O)C1C(C(=O)OC)C2(OC(c3ccc(Cl)cc3)=CC2=O)C12OC(c1ccc(Cl)cc1)=CC2=O (stereo unspecified): 22.3 µM (inactive)
- CC(NC(=O)OC(C)(C)C)C(=O)NC(Cc1ccccc1)C(=O)NCC(=O)Oc1c(Cl)c(Cl)c(Cl)c(Cl)c1Cl (stereo unspecified): 17.8 µM (inactive)
- Cn1cc2ccccc2c1-c1nc(F)nc(Oc2ccc3c(c2)CC[C@@H]2C3CC[C@@]3(C)C2CC[C@@H]3O)n1 (stereo partly specified): 15.6 µM (inactive)
- COc1cccc(C2c3cc4c(cc3OC(N3CCCC3)C2C)OCO4)c1O (stereo unspecified): 9.68 µM (inactive)
- C=CCN(C)CN(C)c1nc(N(C)C)nc(N(C)C)n1: > 100 µM (inactive)
- CCCc1cc2c(cc1O)CC[C@@H]1[C@@H]2CC[C@]2(C)[C@@H](O)CC[C@@H]12: 12.7 µM (inactive)
- NNC(=O)CCCCCCCC(=O)O: > 100 µM (inactive)
- CCOC(=O)c1ccc(/C(C)=N/NC(N)=S)cc1: 2.74 µM (inactive)
- C[N+](C)(C)CC1CCCc2ccccc2C1=O (stereo unspecified): 6.46 µM (inactive)
- O=c1cc(/C=C/c2ccc(O)c(O)c2)oc(/C=C/c2ccc(O)c(O)c2)c1: 6.53 µM (inactive)
- CCCCOCN/C(N)=N/C#N: > 100 µM (inactive)
- CC(=O)OCCOCn1cc(C=O)c2ccccc21: > 100 µM (inactive)
- CCOC(=O)[C@@]12C(C)=CC(=O)O[C@]1(C)C1C(=O)NC(=O)C12 (stereo partly specified): > 100 µM (inactive)
- O=S1(=O)OCCOS(=O)(=O)C1Cc1cccc2ccccc12: 30.3 µM (inactive)
- C=C1CC[C@@H](Br)C(C)(C)[C@]12CCC(C)(O)C(Cl)C2 (stereo partly specified): 19.1 µM (inactive)
- COc1ccc(C(SC2C(O)C(CO)OC2n2ccc(=O)[nH]c2=O)(c2ccccc2)c2ccc(OC)cc2)cc1 (stereo unspecified): 17.1 µM (inactive)
- Cc1nn(-c2ccccc2)c2nc3c(c(C)nn3-c3ccccc3)c(-c3ccc(C(F)(F)F)cc3)c12: > 100 µM (inactive)
- Nc1ccc2c(c1)S(=O)(=O)c1cc(N)ccc1-2: > 100 µM (inactive)
- COc1ccc2c3c1OC1C(OC)(OC)CC4(C=C2)CN(C)CCC314 (stereo unspecified): > 100 µM (inactive)
- Cc1cc(NS(=O)(=O)c2ccc(NC(=O)c3cccc4c(=O)c5ccccc5[nH]c34)cc2)no1: 43.6 µM (inactive)
- CC(C(=O)ON1C(=O)CCC1=O)c1ccc(C(=O)c2ccccc2)s1 (stereo unspecified): > 100 µM (inactive)
- O=C(Cc1nc2ccccc2s1)Nc1cccc(C(F)(F)F)c1: 22.2 µM (inactive)
- c1ccc(C2N3CCCCC3[C@@H]3c4[nH]c5ccccc5c4CCN23)nc1 (stereo partly specified): > 100 µM (inactive)
- CN(C)c1ccc(/C=C2\C[C@H]3[C@@H]4CC=C5C[C@@H](O)CC[C@]5(C)[C@H]4CC[C@]3(C)[C@H]2O)cc1: 4.81 µM (inactive)
- CCc1cccc(C(C)C)c1NC(=O)/C(=N\NC(N)=O)C(C(=O)OC)c1cnc2ccccc2n1 (stereo unspecified): > 100 µM (inactive)
- CCOC(=O)c1sc2[n+](c1C)C(=O)/C(=C/c1ccccc1Cl)S2: 3.21 µM (inactive)

* * *

System: SF-268
Assay procedure: NCI tumour cell line growth inhibition, 48 h
Active and inactive are the calls of the source. Cut-off read from the data, not from the text of the source: active = GI50 up to about 1.1 µM and inactive = higher.
Outcomes: active, inactive

• CCOP(=O)(CC1CC(O)(CNc2cc(Cl)nc(N)n2)C1)OCC (stereo not drawn) = inactive
• Cc1cccc(-c2nc3c(C(=O)NCCN(C)C)cccc3[nH]2)c1 = inactive
• CCc1cc(C)cc2[n+]1CC=C2.[O-][Cl+3]([O-])([O-])[O-] = inactive
• COC(=O)c1cnn2c1n[n+]([O-])c1ccccc12 = inactive
• N=C(N)NC(=N)Nc1ccc(S(=O)(=O)O)cc1 = inactive
• O=C(/C=C/c1ccc(Oc2cc(C(=O)/C=C/c3ccc(O)cc3)c(O)cc2O)cc1)c1ccc(O)cc1O = inactive
• O=S(=O)(O)c1ccc(/N=N/c2ccc(/N=N/c3c(O)ccc4ccc(S(=O)(=O)O)cc34)cc2)cc1 = inactive
• CCOC(=O)C1=C(C#N)S(=O)(=O)c2c(oc(C)c2C)N1 = inactive
• Cc1ccc(S(=O)(=O)N/N=C/C(C)C)cc1 = inactive
• Cc1c(C)c(C)c(-n2[nH]c(=O)n(C)c2=O)c(C)c1C = inactive
• CC1=C(SCCO)C(=O)c2ccccc2C1=O = inactive
• O=C1NN=CN2C(=O)CCC12 (stereo not drawn) = inactive
• Oc1ccc2c(c1)OCC1c3ccccc3OC21 (stereo not drawn) = inactive
• O=C1C[C@@H](c2ccc(O)cc2)[C@@]2(O1)C(=O)O[C@H]([C@@H](O)CO)[C@@H]2O = inactive
• Cn1nc2ccc(Nc3cc(=O)[nH]c4ccc5nn(C)nc5c34)cc2n1 = inactive
• COC(=O)[C@@]12OC[C@]34C([C@@H](O)C1O)[C@@]1(C)CC(=O)C(O)=C(C)C1C[C@H]3OC(=O)[C@H](OC(=O)CC(C)C(F)(F)F)[C@H]42 (stereo partly drawn) = active
• O=[N+]([O-])c1ccc(-c2noc(-c3ccc(Cl)cc3)c2C2=NCCN2)cc1 = inactive
• CCCN(CCC)C(=O)c1nc(N)nc(-c2ccc(OC)cc2)c1-c1ccc(OC)cc1 = inactive
• COc1cc(-c2cc(-c3cc([N+](=O)[O-])c(/C=N/NC(=O)c4ccncc4)o3)ccc2OC)ccc1C = inactive
• CCOC(=O)/C=C1/C(CCCOCc2ccccc2)C2CCCC23CC2(CCN13)OCCO2 (stereo not drawn) = inactive
• CC(=O)OC1CC2C(=O)C(=O)C1(C)C2(C)C (stereo not drawn) = inactive
• COC(=O)c1c2c(cc3c1CC1(Cc4ccccc4C1)C3)CCC2 = inactive
• CCOC(=O)c1sc2c(C(=O)OCC)n3ccccc3c2c1N = inactive
• COc1cccc2c(=O)c3c(O)c4cc(N(C)C)ccc4c(OC(C)=O)c3oc12 = inactive
• O=C(O)C1CCCN1Cc1cc2ccccc2c2ccccc12 (stereo not drawn) = inactive
• Cc1cc(NS(=O)(=O)c2ccc(NC(=O)c3cccc4c(=O)c5ccccc5[nH]c34)cc2)no1 = inactive
• O=C(CSc1nc2ccccc2c(=O)n1-c1ccccc1)N/N=C1\C(=O)Nc2ccc(Br)cc21 = inactive
• COc1ccc(Nc2nc(N)c(C(=O)c3ccccc3)s2)cc1 = active
• Cc1ccc(/N=C/c2ccc3c(c2)OCO3)cc1C = inactive
• CCN(CC)CCC1CCCCN1CC(=O)N1c2ccccc2NC(=O)c2ccccc21 (stereo not drawn) = inactive
• O=[N+]([O-])c1ccc(C2=Nc3ccccc3[S+]([O-])C(c3ccccc3)C2)cc1 (stereo not drawn) = inactive
• COc1cc(Br)cc2cc(-c3cn4c(n3)sc3ccccc34)c(=O)oc12 = inactive
• N=C(N)NCCNC(=N)N = inactive
• O=C(/C=C/c1ccccc1)CSc1nc[nH]n1 = inactive
• COC(=O)C1=C(C)C(=O)C2(CCCCCC2C(=O)OC)C1 (stereo not drawn) = inactive
• CC1(C)OC[C@H](C(=N)OCc2ccccc2)O1 = inactive
• CC(=O)O[C@H]1CC[C@H]2[C@@H]3CCC(C(C)=O)[C@H](C(=O)O)[C@H]3CC[C@]12C (stereo partly drawn) = inactive
• COc1ccc(-c2cn3ccsc3n2)cc1 = inactive
• N#Cc1c(Cl)cc(Cl)n2c1nc1ccccc12 = inactive
• COC(=O)CC1C2CC3C(C2=O)C13 (stereo not drawn) = inactive
• COC(=O)C1=C(C(=O)OC)SC(=C2SC3=C(SC(=C4SCCS4)S3)S2)S1 = inactive
• Nc1nc(S)nc(C(=O)Nc2nccs2)c1-c1ccccc1 = inactive
• COc1cccc(-c2nc(-c3cnccn3)n(C3OC(CO)C(O)C3O)n2)c1 (stereo not drawn) = inactive
